Data provenance is PubChem BioAssay AID248.

test system: L1210 leukemia ip in BDF1 mice, survival T/C; experiment: NCI In Vivo Anticancer Drug Screen. Data for tumor model L1210 Leukemia (intraperitoneal) in B6D2F1 (BDF1) mice; details: endpoint: mean survival time; dose: 100.0 mg/kg/injection; schedule: Q01DX009 (ip); vehicle: saline with Tween-80; higher = longer survival
Toxic doses and inconclusive results are not listed.
So I've got a bunch of molecules here, and I need their T/C values.

molecule="OC1CCCCC1c1ccccc1 (stereo not given)" targetundertest="L1210 leukemia ip in BDF1 mice, survival T/C" reportedresult="87 % of control"
molecule=Cc1ccc(S(=O)(=O)N2CCC(C(=O)O)(c3ccccc3)CC2)cc1 targetundertest="L1210 leukemia ip in BDF1 mice, survival T/C" reportedresult="117 % of control"
molecule=CSc1ccc(OC(=O)Nc2ccccc2F)cc1 targetundertest="L1210 leukemia ip in BDF1 mice, survival T/C" reportedresult="103 % of control"
molecule="CC1CC(C)(C)CC2(C1)OCCCO2 (stereo not given)" targetundertest="L1210 leukemia ip in BDF1 mice, survival T/C" reportedresult="102 % of control"
molecule="Cc1ccc(NC(=O)C(Br)C(Br)C(=O)O)cc1Cl (stereo not given)" targetundertest="L1210 leukemia ip in BDF1 mice, survival T/C" reportedresult="107 % of control"

Could I get T/C for every one of these entries?
1. CC1(C)CNC(C(=O)O)C1 (stereo not given)
2. O=C1NC(=O)c2ncccc21
3. Cc1ccc(S(=O)(=O)N/N=C/C(O)C(O)C(O)CO)cc1 (stereo not given)
4. CC1(C)CC(=O)C(c2ccc([N+](=O)[O-])cc2)=C(O)c2ccccc21

1. 100 % of control
2. 90 % of control
3. 94 % of control
4. 94 % of control

Take each entry in turn and give its T/C.
1. COc1ccc(Cl)cc1N
2. N#Cc1ccc(Nc2ccc(C#N)cc2)cc1

1. 100 % of control
2. 94 % of control

Give T/C for each of the items listed below.
1. CC(C)(C#N)NC(=O)NC(C)(C)C#N
2. Brc1ccc(C[N+]23CN4CN(CN(C4)C2)C3)cc1
3. Cc1cc(C)c(CCc2cc(C)c(C)cc2C)cc1C
4. Nc1nc(Cl)c2[nH]cnc2n1
5. COc1cc(C)ccc1C(=O)c1ccc(C)cc1OC

["97 % of control", "101 % of control", "93 % of control", "124 % of control", "98 % of control"]

Each molecule below has a reported value. Please supply its T/C.
1. [O-][n+]1ccccc1C(c1ccccc1)c1ccccc1
2. CS(=O)(=O)OCCC(COS(C)(=O)=O)S(=O)(=O)CCCOc1ccccc1-c1ccccc1 (stereo not given)

["90 % of control", "94 % of control"]

I'm hoping you can list T/C for every molecule here, please.
1. O=c1c2ccccc2c(-c2ccccc2)nn1Cc1ccccc1
2. CC(O)CC(C)(C)c1ccccc1 (stereo not given)
3. O=C(CNC(=O)Nc1ccc(Cl)c(Cl)c1)N/N=C/c1c(O)ccc2ccccc12

["93 % of control", "93 % of control", "93 % of control"]

Need T/C for each of these molecules.
1. CCCCCC1SC1CC1SC1CCCCCCCC(=O)N1CCOCC1 (stereo not given)
2. O=c1[nH]c(=O)n2n1CC(Br)C(Br)C2 (stereo not given)
3. CCCCCCCC/C=C\CCCCCCCC(=O)OCCSCCOC(C)=O
4. CCC(=O)/C=C/C1C(C)=CCCC1(C)C (stereo not given)
5. CCCCCCCCCCCCCCCC(=O)N(CCC#N)c1ccc(N(CCC#N)C(=O)CCCCCCCCCCCCCCC)cc1
6. O=C1CCC(c2ccc3c(c2)CCCC3)O1 (stereo not given)

1: 98 % of control; 2: 94 % of control; 3: 97 % of control; 4: 86 % of control; 5: 86 % of control; 6: 95 % of control

Dear colleague, could you send me T/C for each of the items below? Thanks.
1. CCOC(=O)c1cnn(C(N)=S)c1N
2. O=[N+]([O-])c1ccc(N/N=C/c2cccc(CO)c2)c([N+](=O)[O-])c1

1: 98 % of control; 2: 98 % of control

Can you give me T/C for all of these, one by one?
1. CCOc1ccc(/C=N/NC(=O)c2ccc(O)c(OC)c2)cc1OC
2. Cc1cc(Cl)ccc1NS(=O)(=O)c1ccc(Br)cc1

1. 103 % of control
2. 97 % of control
